# TARGET OR TEST SYSTEM: S. aureus α-hemolysin (αHL) (Staphylococcus aureus, UniProt P09616)
# Sequence (P09616 27-319 limits assumed): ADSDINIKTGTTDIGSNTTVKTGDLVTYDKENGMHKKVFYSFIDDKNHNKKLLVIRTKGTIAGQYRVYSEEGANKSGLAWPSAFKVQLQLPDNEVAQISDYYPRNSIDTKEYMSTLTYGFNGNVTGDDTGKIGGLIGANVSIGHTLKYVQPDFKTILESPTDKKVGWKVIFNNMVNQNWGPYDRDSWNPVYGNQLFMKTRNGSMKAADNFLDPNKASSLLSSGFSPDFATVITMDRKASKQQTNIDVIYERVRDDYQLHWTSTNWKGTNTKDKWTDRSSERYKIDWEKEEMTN
# ASSAY DETAILS: cell-based
Task for the reader: assign each of the following compounds its reported pIC50.
Reminder that pIC50 is minus the log10 of a molar concentration.

Prompt: I would be grateful if you could share the reported pIC50 for O=C(OCC1OC(OC(=O)c2cc(O)c(O)c(O)c2)C(OC(=O)c2cc(O)c(O)c(O)c2)C(OC(=O)c2cc(O)c(O)c(OC(=O)c3cc(O)c(O)c(O)c3)c2)C1OC(=O)c1cc(O)c(O)c(O)c1)c1cc(O)c(O)c(OC(=O)c2cc(O)c(O)c(O)c2)c1 (stereo not shown) [Compound T1] .
Response: 5.53

Prompt: Next compound: O=C(OCC1OC(OC(=O)c2cc(O)c(O)c(O)c2)C(OC(=O)c2cc(O)c(O)c(O)c2)C(OC(=O)c2cc(O)c(O)c(O)c2)C1OC(=O)c1cc(O)c(O)c(O)c1)c1cc(O)c(O)c(O)c1 [Compound T2, 1,2,3,4,5-penta-O-galloyl-β-D-glucose]
Response: 5.45

Prompt: Next compound: O=C(OC1OC2COC(=O)c3cc(Oc4c(C(=O)O)cc(O)c(O)c4O)c(O)c(O)c3-c3c(cc(O)c(O)c3O)C(=O)OC2C(O)C1OC(=O)c1cc(O)c(O)c(O)c1)c1cc(O)c(O)c(O)c1 (stereo not shown) [Compound T4]
Response: 4.84

Prompt: Next compound: O=C(OC1C(O)C(CO)OC2OC(=O)c3cc(Oc4c(C(=O)O)cc(O)c(O)c4O)c(O)c(O)c3-c3c(cc(O)c(O)c3O)C(=O)OC21)c1cc(O)c(O)c(O)c1 [Compound T3, 3-O-galloyl-1,2-valoneoyl-β-D-glucose]
Response: 4.56

====

# System: S. aureus NCTC 5655
# ASSAY DETAILS: microbe, parasite or virus in culture
# Format: cell-based, Staphylococcus aureus
# CONDITION CONTEXT: Staphylococcus aureus, NCTC5655, 24 h, read-out: Minimal bactericidal concentration MBC
MEASURED ENDPOINT: MBC

Prompt: What reported MBC corresponds to O=C(OC1OC2COC(=O)c3cc(Oc4c(C(=O)O)cc(O)c(O)c4O)c(O)c(O)c3-c3c(cc(O)c(O)c3O)C(=O)OC2C(O)C1OC(=O)c1cc(O)c(O)c(O)c1)c1cc(O)c(O)c(O)c1 (stereo not shown) on S. aureus NCTC 5655?
Response: 100 µM

Prompt: Next molecule: O=C(OCC1OC(OC(=O)c2cc(O)c(O)c(O)c2)C(OC(=O)c2cc(O)c(O)c(O)c2)C(OC(=O)c2cc(O)c(O)c(OC(=O)c3cc(O)c(O)c(O)c3)c2)C1OC(=O)c1cc(O)c(O)c(O)c1)c1cc(O)c(O)c(OC(=O)c2cc(O)c(O)c(O)c2)c1 (stereo not shown)
Response: 25 µM

Prompt: Next molecule: O=C(OCC1OC(OC(=O)c2cc(O)c(O)c(O)c2)C(OC(=O)c2cc(O)c(O)c(O)c2)C(OC(=O)c2cc(O)c(O)c(O)c2)C1OC(=O)c1cc(O)c(O)c(O)c1)c1cc(O)c(O)c(O)c1 (stereo not shown)
Response: 50 µM

Prompt: Next molecule: O=C(OC1C(O)C(CO)OC2OC(=O)c3cc(Oc4c(C(=O)O)cc(O)c(O)c4O)c(O)c(O)c3-c3c(cc(O)c(O)c3O)C(=O)OC21)c1cc(O)c(O)c(O)c1 (stereo not shown)
Response: 100 µM
